Tested on: NCI-H460
procedureText: Cytotoxicity against human H460 cells after 72 hrs by alamar blue assay
Format: functional, cell-based
measurementContext: nci-h460
IC50 values, listed per item
Write down the numeric answer in nM and omit the unit.

What IC50 value was documented for this compound, `CC[C@@]1(O)C(=O)OCc2c1c(N)c1n(c2=O)Cc2cc3ccccc3nc2-1` ?
23

Field entry: `CCc1c2c(nc3ccccc13)-c1c(N)c3c(c(=O)n1C2)COC(=O)[C@]3(O)CC`
12

----------
procedureText: Ratio of IC50 for mouse bone marrow cell to IC50 for human bone marrow cell
Assay type: cell-based
measurementContext: bone marrow cells
selectivity ratio values, listed per item
Respond using a number only.

Worked set:
CCc1c2c(nc3ccc(OC(=O)N4CCC(N5CCCCC5)CC4)cc13)-c1cc3c(c(=O)n1C2)COC(=O)[C@]3(O)CC [IRINOTECAN]    85
CC[C@@]1(O)C(=O)OCc2c1c(N)c1n(c2=O)Cc2cc3ccccc3nc2-1    6
CC[C@@]1(O)C(=O)OCc2c1cc1n(c2=O)Cc2cc3c(CN(C)C)c(O)ccc3nc2-1 [TOPOTECAN]    16
CCc1c2c(nc3ccccc13)-c1c(N)c3c(c(=O)n1C2)COC(=O)[C@]3(O)CC    6

Moving on to the next compound.
What selectivity ratio value was documented for this compound, CC[C@@]1(O)C(=O)OCc2c1cc1n(c2=O)Cc2cc3c(N)cccc3nc2-1 [9-AMINOCAMPTOTHECIN] ?
75

----------
procedureText: Tmax in CD-1 mouse brain at 50 mg/kg, ip by LC/MS/MS analysis
Format: ADME, organism-based
Parameters: dose 50 mg/kg, route intraperitoneal
readoutName: Tmax (min)
Write down the numeric answer in min and omit the unit.

CCc1c2c(nc3ccccc13)-c1c(N)c3c(c(=O)n1C2)COC(=O)[C@]3(O)CC    60

Moving on to the next compound.
What Tmax value was documented for this compound, `CC[C@@]1(O)C(=O)OCc2c1c(N)c1n(c2=O)Cc2cc3ccccc3nc2-1` ?
30

----------
IC50 values, listed per item
System: A-375
procedureText: Cytotoxicity against human A375 cells after 72 hrs by alamar blue assay
Type: functional, cell-based
measurementContext: A-375, 72 h
Write down the numeric answer in nM and omit the unit.

Worked set:
CC[C@@]1(O)C(=O)OCc2c1c(N)c1n(c2=O)Cc2cc3ccccc3nc2-1    22
CCc1c2c(nc3ccc(OC(=O)N4CCC(N5CCCCC5)CC4)cc13)-c1cc3c(c(=O)n1C2)COC(=O)[C@]3(O)CC    4
CCc1c2c(nc3ccccc13)-c1c(N)c3c(c(=O)n1C2)COC(=O)[C@]3(O)CC    7

What IC50 value was documented for this compound, `CC[C@@]1(O)C(=O)OCc2c1cc1n(c2=O)Cc2cc3c(CN(C)C)c(O)ccc3nc2-1` ?
13

----------
AUC values, listed per item
procedureText: AUC in CD-1 mouse brain at 50 mg/kg, ip by LC/MS/MS analysis
Assay type: ADME, organism-based
Set-up: dose 50 mg/kg, route intraperitoneal
Write down the numeric answer in ng·h/mL and omit the unit.

CC[C@@]1(O)C(=O)OCc2c1c(N)c1n(c2=O)Cc2cc3ccccc3nc2-1    1670

Moving on to the next compound.
What AUC value was documented for this compound, `CCc1c2c(nc3ccccc13)-c1c(N)c3c(c(=O)n1C2)COC(=O)[C@]3(O)CC` ?
750
